Numbers sourced from ChEMBL document CHEMBL5223138.

Target: Heparanase (Homo sapiens, UniProt Q9Y251)
Sequence (Q9Y251 whole entry): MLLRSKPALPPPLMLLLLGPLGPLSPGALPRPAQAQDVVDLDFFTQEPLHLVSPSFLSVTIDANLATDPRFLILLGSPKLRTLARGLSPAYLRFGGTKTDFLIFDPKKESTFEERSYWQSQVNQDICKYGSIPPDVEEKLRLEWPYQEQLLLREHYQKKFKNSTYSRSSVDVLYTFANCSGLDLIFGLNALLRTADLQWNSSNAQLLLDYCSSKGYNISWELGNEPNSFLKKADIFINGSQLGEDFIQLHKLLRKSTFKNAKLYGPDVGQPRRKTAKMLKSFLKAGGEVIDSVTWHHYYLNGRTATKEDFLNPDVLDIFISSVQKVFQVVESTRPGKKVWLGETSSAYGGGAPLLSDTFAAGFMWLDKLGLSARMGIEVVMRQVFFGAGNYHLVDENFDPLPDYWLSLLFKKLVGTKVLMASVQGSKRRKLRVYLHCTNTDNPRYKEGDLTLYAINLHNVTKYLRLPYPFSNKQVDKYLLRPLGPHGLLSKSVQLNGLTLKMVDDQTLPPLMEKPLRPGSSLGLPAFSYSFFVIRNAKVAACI
OBSERVABLE: pIC50
Scale explanation: pIC50 corresponds to minus log10 of a concentration expressed in moles per litre.

In plain terms, O=C(O)[C@@H]1[C@@H](O)[C@H](O)[C@@H](O)c2nc(CCc3ccc(C(F)(F)F)cc3)cn21 has a documented pIC50 of 5.47
